Cited source: paper PMC5180085

Target: Ku70;Ku80 (human;human, UniProt P12956;P13010 1-609;1-732, |)
Sequence (P12956 whole entry, chain 1 of 2): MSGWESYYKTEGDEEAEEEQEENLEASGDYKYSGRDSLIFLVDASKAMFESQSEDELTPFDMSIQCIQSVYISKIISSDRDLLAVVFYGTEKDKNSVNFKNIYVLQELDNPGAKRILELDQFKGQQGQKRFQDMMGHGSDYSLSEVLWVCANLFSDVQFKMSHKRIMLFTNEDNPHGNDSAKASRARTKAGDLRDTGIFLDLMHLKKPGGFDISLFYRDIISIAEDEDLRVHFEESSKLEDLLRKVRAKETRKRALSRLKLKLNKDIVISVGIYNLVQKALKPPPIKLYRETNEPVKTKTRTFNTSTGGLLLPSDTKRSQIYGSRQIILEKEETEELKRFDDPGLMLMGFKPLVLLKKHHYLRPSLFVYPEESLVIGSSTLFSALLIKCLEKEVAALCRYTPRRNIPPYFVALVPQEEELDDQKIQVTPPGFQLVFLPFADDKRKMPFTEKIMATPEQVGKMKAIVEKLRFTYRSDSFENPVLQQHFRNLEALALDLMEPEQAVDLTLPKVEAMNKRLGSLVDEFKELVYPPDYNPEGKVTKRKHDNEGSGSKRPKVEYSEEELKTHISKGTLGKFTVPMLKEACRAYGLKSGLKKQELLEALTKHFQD
Sequence (P13010 whole entry, chain 2 of 2): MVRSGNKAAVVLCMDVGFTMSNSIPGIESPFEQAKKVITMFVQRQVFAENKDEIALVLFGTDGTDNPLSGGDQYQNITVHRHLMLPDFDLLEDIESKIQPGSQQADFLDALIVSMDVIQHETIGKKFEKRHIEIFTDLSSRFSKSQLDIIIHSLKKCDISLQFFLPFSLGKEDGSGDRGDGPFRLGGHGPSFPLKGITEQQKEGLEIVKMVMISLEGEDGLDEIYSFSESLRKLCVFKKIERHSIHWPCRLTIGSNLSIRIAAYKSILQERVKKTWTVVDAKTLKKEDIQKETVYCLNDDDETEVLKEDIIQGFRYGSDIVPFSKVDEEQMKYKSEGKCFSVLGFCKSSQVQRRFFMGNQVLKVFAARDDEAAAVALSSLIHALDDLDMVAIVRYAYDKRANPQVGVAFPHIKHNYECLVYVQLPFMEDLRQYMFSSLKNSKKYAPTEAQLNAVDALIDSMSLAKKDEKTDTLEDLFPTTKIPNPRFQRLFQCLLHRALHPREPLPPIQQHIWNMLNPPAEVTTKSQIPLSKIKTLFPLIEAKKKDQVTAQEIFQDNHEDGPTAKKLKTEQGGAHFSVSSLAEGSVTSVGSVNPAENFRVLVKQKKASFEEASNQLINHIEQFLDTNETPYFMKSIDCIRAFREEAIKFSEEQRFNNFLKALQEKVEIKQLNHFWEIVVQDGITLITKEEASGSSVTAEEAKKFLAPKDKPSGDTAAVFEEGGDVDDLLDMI
Test: mwPIFE; mwPIFE, room temp, 30 min: BamHI 10 mM Tris-HCl pH 8, 100 mM KCl, 0.02% Triton X-100, 0.1 mg/ml BSA, 5 mM EDTA/MgCl2/CaCl2; Ku 35 mM Tris-Cl pH 7.9, 5.5% glycerol, 150 mM KCl, 1 mM EDTA, 0.1 mM DTT, 1.5 mM imidazole; XPF/ERCC1 10 mM Tris-Cl pH 8, 10 mM NaCl. FA: 10 mM Tris-HCl pH 8, 10 mM NaCl, 10% glycerol, 1 mM TCEP, 50 nM DNA, 25 C
Settings: protein: recombinant;recombinant; tags: ;; copies: 1;1; label: 5' biotin strand 1; 5' Cy3 strand 2; blunt
pKd: −log10 of the molar value.
measured-attribute: pKd

[
  {
    "binder": "Btn_15_f/Cy3_15_r (dsDNA) DNA 1: ACCTAGATAGAGCCA DNA 2: TGGCTCTATCTAGGT",
    "measured-attribute": "pKd",
    "value-reported": 8.00
  }
]
